Could you please report measured IC50 for the items listed next?
measurement.target: human DGKζ (Homo sapiens)
Construct: TVMV protease cleavage site (C); Hexa-His (C); made in house; host or cells: Sf9 insect cells (baculovirus, Bac-to-Bac)
Sequence (Q13574 with tags, fused parts or gaps isoform Q13574-4): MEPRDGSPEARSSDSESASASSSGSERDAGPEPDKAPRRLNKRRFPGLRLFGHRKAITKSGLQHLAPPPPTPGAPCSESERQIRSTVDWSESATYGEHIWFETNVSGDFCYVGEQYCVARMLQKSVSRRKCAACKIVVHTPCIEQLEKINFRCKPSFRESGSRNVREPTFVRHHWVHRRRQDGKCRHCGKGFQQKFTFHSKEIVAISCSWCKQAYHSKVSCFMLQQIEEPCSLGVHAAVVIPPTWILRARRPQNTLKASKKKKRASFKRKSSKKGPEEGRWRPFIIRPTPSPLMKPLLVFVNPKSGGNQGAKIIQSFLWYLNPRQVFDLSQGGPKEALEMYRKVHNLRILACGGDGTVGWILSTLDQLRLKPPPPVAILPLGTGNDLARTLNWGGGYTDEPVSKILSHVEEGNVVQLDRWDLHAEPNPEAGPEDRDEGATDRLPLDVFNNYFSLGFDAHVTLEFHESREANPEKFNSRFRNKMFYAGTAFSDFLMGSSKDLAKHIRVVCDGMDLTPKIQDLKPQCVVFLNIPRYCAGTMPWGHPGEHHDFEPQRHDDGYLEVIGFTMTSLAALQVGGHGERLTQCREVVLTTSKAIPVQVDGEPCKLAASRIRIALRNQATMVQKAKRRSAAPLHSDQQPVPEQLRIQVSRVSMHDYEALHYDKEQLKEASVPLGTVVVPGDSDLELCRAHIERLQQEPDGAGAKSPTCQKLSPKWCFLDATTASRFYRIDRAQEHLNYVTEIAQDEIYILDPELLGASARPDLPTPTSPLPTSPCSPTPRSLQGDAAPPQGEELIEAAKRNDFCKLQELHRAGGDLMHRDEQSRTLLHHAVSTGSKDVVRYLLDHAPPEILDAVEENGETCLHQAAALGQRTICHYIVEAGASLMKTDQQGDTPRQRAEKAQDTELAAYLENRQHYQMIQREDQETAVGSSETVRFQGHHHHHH
experiment.description: DGKζ LIPGLO assay (extruded liposome substrate), in vitro DGK inhibition
Assay type: biochemical
condition.context: DGKζ liposome (LIPGLO) assay; read-out: DGKz LIPGLO IC50
One number for each entry, in µM.

Kindly give each listed record's IC50.
1. C[C@@H]1CN(c2c(C#N)c(=O)n(C)c3ccc(C#N)nc23)CCN1Cc1ccc(F)cc1F
2. CCc1ccccc1C(c1ccc(F)cc1)N1C[C@H](C)N(c2c(C#N)c(=O)n(C)c3ccc(C#N)nc23)C[C@H]1C (single isomer, unassigned) [Example 809]
3. CC(c1ccc(Br)cc1)N1CCN(c2c(C#N)c(=O)n(C)c3ccc(C#N)nc23)C[C@H]1C (single isomer, unassigned) [Example 975]
4. C[C@@H]1CN(c2cc(=O)n(C)c3ccc(C#N)nc23)[C@@H](C)CN1C(c1ccc(F)cc1)c1cc(C(C)(C)C)on1 (single isomer, unassigned) [Example 731]

Result:
3
2.3
83
0.33

* * *

measurement.target: human DGKα (Homo sapiens)
Construct: TVMV protease cleavage site (C); Hexa-His (C); made in house; host or cells: Sf9 insect cells (baculovirus, Bac-to-Bac)
Sequence (P23743 with tags, fused parts or gaps): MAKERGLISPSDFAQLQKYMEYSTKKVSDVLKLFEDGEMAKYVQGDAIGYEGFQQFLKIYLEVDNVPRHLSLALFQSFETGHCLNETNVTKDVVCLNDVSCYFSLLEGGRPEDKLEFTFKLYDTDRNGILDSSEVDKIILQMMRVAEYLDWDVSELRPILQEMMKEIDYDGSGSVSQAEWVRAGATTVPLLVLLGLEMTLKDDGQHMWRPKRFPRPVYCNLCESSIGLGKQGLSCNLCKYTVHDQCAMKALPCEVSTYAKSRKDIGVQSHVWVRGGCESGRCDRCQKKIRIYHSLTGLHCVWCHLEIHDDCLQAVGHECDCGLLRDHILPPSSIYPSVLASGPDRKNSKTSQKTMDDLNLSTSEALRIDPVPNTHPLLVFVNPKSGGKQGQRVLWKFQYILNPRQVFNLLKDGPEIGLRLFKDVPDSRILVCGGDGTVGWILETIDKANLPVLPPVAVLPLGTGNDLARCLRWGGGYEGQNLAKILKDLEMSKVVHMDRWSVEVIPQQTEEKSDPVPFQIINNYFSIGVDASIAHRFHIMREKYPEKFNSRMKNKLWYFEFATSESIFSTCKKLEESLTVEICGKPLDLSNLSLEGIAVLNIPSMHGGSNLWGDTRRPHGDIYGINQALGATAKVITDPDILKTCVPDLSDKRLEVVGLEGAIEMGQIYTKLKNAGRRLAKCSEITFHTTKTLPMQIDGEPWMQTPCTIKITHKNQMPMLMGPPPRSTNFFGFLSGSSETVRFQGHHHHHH
experiment.description: DGKα LIPGLO assay (extruded liposome substrate), in vitro DGK inhibition
Type: biochemical
condition.context: liposome (LIPGLO) assay; read-out: DGKa LIPGLO IC50
For each entry below, report its pIC50 value.
One number for each entry, as −log10 of the molar value.

Request: Would you kindly share the measured pIC50 for CCOC[C@@H]1CN(c2cc(=O)n(C)c3ccc(C#N)nc23)[C@@H](C)CN1C(C)c1ccc(OC(F)(F)F)cc1 (single isomer, unassigned) [Example 1397] ?
Result: 5.89

Request: Another compound to check: CC[C@@H]1CN(c2c(C#N)c(=O)n(C)c3ccc(C#N)nc23)CCN1C(c1ccc(Cl)cc1)c1ccc(Cl)cc1
Result: 6.06

Request: Note, next up: CC[C@H]1CN(C(c2ccc(F)cc2)c2ccc(Cl)cc2)[C@H](C)CN1c1cc(=O)n(C)c2ccc(C#N)nc12 (stereo partly drawn) [Example 1127]
Result: 6.17

For each of the compounds below, state pIC50.
1. C[C@@H]1CN(c2c(F)c(=O)n(C)c3ccc(C#N)nc23)[C@@H](C)CN1C(c1ccc(F)cc1)c1c(F)cccc1F (single isomer, unassigned) [Example 336]
2. C[C@@H]1CN(c2cc(=O)n(C)c3ccc(C#N)nc23)[C@@H](C)CN1Cc1cccc(C(F)(F)F)n1
3. C[C@@H]1CN(c2cc(=O)n(C)c3ccc(C#N)nc23)[C@@H](C)CN1C(c1ccc(F)cc1)c1cocn1 (single isomer, unassigned) [Example 709]

Result:
6.13
6.06
6.17

* * *

measurement.target: human DGKζ (Homo sapiens)
Construct: TVMV protease cleavage site (C); Hexa-His (C); made in house; host or cells: Sf9 insect cells (baculovirus, Bac-to-Bac)
experiment.description: DGKζ LIPGLO assay (extruded liposome substrate), in vitro DGK inhibition
Assay type: biochemical
condition.context: liposome (LIPGLO) assay; read-out: DGKz LIPGLO IC50
Give pIC50 for every item shown.
Give bare numbers, as −log10 of the molar value.

Below, 4 compounds whose answers are already recorded.
Request: Request the reported pIC50 associated with CC[C@@H]1CN(c2cc(=O)n(C)c3ccc(C#N)nc23)CCN1C(c1ccc(Cl)cc1)c1ccc(Cl)cc1
Result: 5.82

Request: Same for C[C@@H]1CN(c2cc(=O)n(C)c3ccc(C#N)nc23)[C@@H](C)CN1Cc1c(F)cc(Cl)cc1F
Result: 5.92

Request: How about CCC(c1ccc(OC(F)(F)F)cc1F)N1C[C@H](C)N(c2cc(=O)n(C)c3ccc(C#N)nc23)C[C@H]1C (some centres unmarked) [Example 438] ?
Result: 6.09

Request: Okay, and CCC(c1ccc(OCC2CC2)cc1)N1C[C@H](C)N(c2cc(=O)n(C)c3ccc(C#N)nc23)C[C@H]1C (single isomer, unassigned) [Example 1440] ?
Result: 5.96

Okay, now this compound:
Request: So what does the record say about pIC50 for CCOc1ncccc1C(c1ccc(F)cc1)N1C[C@H](C)N(c2cc(=O)n(C)c3ccc(C#N)nc23)C[C@H]1C (single isomer, unassigned) [Example 205] ?
Result: 6.17
